- System: LXRa homodimer (NR concentration 270 nM)
- run-description: PBM binding z-score (relative to random genomic background probes); higher = stronger binding; sequences stand for … in GC…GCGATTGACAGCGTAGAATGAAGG
metric: PBM binding z-score

- biopolymer-sequence: "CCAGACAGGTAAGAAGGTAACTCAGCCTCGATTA"
  metric: "PBM binding z-score"
  val: -0.169
- biopolymer-sequence: "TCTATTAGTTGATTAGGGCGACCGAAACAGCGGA"
  metric: "PBM binding z-score"
  val: 0.293
- biopolymer-sequence: "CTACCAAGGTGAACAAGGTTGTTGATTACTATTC"
  metric: "PBM binding z-score"
  val: -0.172
- biopolymer-sequence: "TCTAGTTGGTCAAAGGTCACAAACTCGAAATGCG"
  metric: "PBM binding z-score"
  val: 3.15
- biopolymer-sequence: "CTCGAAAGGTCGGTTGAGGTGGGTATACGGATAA"
  metric: "PBM binding z-score"
  val: 0.0862
- biopolymer-sequence: "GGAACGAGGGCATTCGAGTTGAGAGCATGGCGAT"
  metric: "PBM binding z-score"
  val: -0.277
- biopolymer-sequence: "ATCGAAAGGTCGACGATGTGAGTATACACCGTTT"
  metric: "PBM binding z-score"
  val: -0.0144
- biopolymer-sequence: "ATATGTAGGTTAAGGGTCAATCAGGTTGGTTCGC"
  metric: "PBM binding z-score"
  val: 1.8
- biopolymer-sequence: "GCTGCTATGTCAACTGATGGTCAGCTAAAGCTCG"
  metric: "PBM binding z-score"
  val: -0.849
- biopolymer-sequence: "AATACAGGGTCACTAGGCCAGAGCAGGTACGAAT"
  metric: "PBM binding z-score"
  val: 0.784
- biopolymer-sequence: "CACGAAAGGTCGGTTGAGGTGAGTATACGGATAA"
  metric: "PBM binding z-score"
  val: 0.0219
- biopolymer-sequence: "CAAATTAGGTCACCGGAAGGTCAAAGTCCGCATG"
  metric: "PBM binding z-score"
  val: 5.39
